- TESTED TARGET: recombinant human IL-31 (C108S), produced in E. coli by ZymoGenetics, MW 18 kDa (human), Q6EBC2
- ASSAY TEXT: cell-based or functional assay
Parameter Average Fold loss in potency relative to 292.12.3.1, BAF-3(hIL-31R) proliferation assay: see the listing below.
// units = fold; emit number, no label

BINDER	RESULT NUMBER
humanized 292.12.3.1 construct clone 35 (12VH1-gly + HC(F29L, R94F)) (antibody, human IgG4, V domains shown) VH: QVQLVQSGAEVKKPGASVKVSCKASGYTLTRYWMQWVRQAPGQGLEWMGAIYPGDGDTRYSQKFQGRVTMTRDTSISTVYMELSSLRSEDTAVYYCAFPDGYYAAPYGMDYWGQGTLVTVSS VL: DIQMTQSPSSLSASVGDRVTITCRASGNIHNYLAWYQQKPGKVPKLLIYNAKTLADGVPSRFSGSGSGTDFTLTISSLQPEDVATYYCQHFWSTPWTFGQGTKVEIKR	75.1
humanized 292.12.3.1 construct clone 28 (12VH1-gly + HC(F29L, R71A, R94F) + LC(F71Y)) (antibody, human IgG4, V domains shown) VH: QVQLVQSGAEVKKPGASVKVSCKASGYTLTRYWMQWVRQAPGQGLEWMGAIYPGDGDTRYSQKFQGRVTMTADTSISTVYMELSSLRSEDTAVYYCAFPDGYYAAPYGMDYWGQGTLVTVSS VL: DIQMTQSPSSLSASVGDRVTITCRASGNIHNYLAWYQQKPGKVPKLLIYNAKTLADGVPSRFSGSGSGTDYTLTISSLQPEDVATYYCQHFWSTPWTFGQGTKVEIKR	17.1

Reported Average Fold loss in potency relative to 292.12.3.1, BAF-3(hIL-31R) proliferation assay of humanized 292.12.3.1 construct clone 17 (12VH1-gly + HC(fback) + LC(D70Q, F71Y, T72S)) (antibody, human IgG4, V domains shown) VH: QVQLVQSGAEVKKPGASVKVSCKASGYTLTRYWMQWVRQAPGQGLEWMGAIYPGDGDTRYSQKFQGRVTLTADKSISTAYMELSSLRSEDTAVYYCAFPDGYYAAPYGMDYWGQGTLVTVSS VL: DIQMTQSPSSLSASVGDRVTITCRASGNIHNYLAWYQQKPGKVPKLLIYNAKTLADGVPSRFSGSGSGTQYSLTISSLQPEDVATYYCQHFWSTPWTFGQGTKVEIKR : 5.2
